- Test system: SF-268
- Condition Parameters: read-out: 50% lethal concentration (LC50); SF-268, CNS
Below is a list of entries, each paired with its recorded CC50 value.

# count of solved cases: 2
- Molecule: "C=C1CCC2C3(C)COC(c4cn(-c5ccccc5)nc4-c4cccc([N+](=O)[O-])c4)OC3CCC2(C)C1CC=C1C(=O)OCC1O (stereo not drawn)"
  Result: "> 100 µM"
- Molecule: "C=C1CCC2C3(C)COC(c4cn(-c5ccccc5)nc4-c4ccccc4)OC3CCC2(C)C1CC=C1C(=O)OCC1O (stereo not drawn)"
  Result: "> 100 µM"

Here is the next item to consider.
Need CC50, item C=C1CCC2C3(C)COC(c4cn(-c5ccccc5)nc4-c4ccc(Cl)cc4)OC3CCC2(C)C1CC=C1C(=O)OCC1O (stereo not drawn)
> 100 µM
